# System: IGROV-1
# Protocol Text: NCI tumour cell line growth inhibition, 48 h
Activity calls are given as the source filed them. No stated cut-off is given here; in the data, active = GI50 up to about 1.1 µM and inactive = higher.
Property: GI50

Look up GI50 for this molecule: CCCCCCCCCC(=O)NC(Cc1ccc(O)cc1)C(=O)NCCCNCCCCNCCCNC(=O)[C@@H](N)CCCN=C(N)N (stereo partly drawn)
17.9 µM (inactive)

Next: COc1c(C2=NC(C(C)C)CO2)ccc2ccccc12 (stereo not drawn)
71 µM (inactive)

Next: CSc1c([S+](C)[O-])[nH]c2cc(Br)cc(Br)c12 (stereo not drawn)
37.1 µM (inactive)

Next: CC1(C)OCN(c2ccc(N3CCOCC3)cc2)Cn2c1nc1ccccc12
> 100 µM (inactive)

Next: O=C(/C(=C/c1ccccc1)c1ccccc1)N1c2ccccc2CC1c1c[nH]c2ccccc12 (stereo not drawn)
> 100 µM (inactive)

Next: Cc1ccccc1-n1c2nc(=O)n(C)c(=O)c-2nc2ccccc21
19.2 µM (inactive)

Next: COc1ccc2c(c1)CCCN1Cc3cc(OC)c(OC)cc3CC21 (stereo not drawn)
22.1 µM (inactive)

Next: Brc1nc2c3ccccc3ncn2c1Br
35.9 µM (inactive)

Values from ChEMBL document CHEMBL1201862
